# melting point values compiled below

Below, 2 molecules whose answers are already recorded.
MOLECULE	melting point
Cn1c(-c2ccc3ccccc3c2)nnc1S(C)(=O)=O	204 to 206 °C
COC(=O)c1ccc(Cn2c(=O)c3cc(C#CCc4ccc(OC)cc4)ccc3n3cnnc23)cc1	249 °C

Q. So what's the measured melting point for this one? `COC(=O)C(C)(C)CCOc1ccc(C2=NNC(=O)CC2)cc1Cl`
A. 109 to 110 °C

Q. So what's the measured melting point for this one? `CCCC/C(=C\C(=O)O)c1cc(OC)c(O)c2c(CC)cccc12`
A. 139 to 140 °C

Q. So what's the measured melting point for this one? `COc1cc(Nc2c(C#N)cnc3cc(-c4ccc(CN5CCN(CCO)CC5)o4)ccc23)c(Cl)cc1Cl`
A. 176 to 181 °C

Q. So what's the measured melting point for this one? COc1ccc(-c2cccc3c2OC(COS(=O)(=O)c2ccc(C)cc2)C3)c(OC)c1 (configuration not stated)
A. 120 to 123 °C

Q. So what's the measured melting point for this one? `Cc1cc(C(=O)Nc2cc(Oc3ccc4nc(NC(=O)C5CC5)cn4n3)ccc2C)n(C)n1`
A. 223 °C

Q. So what's the measured melting point for this one? `C#Cc1cc(Nc2ncnc3cnc(N)cc23)ccc1F`
A. 218 to 222 °C
